target: furin (endogenous protease) in U20S cells (Homo sapiens); construct: the endogenous protease cleaves GFP; endogenous in cells; host or cells: U2OS cells transduced with a BacMam reporter; assay: Furin cell-based assay (image-based, Golgi-targeted GFP with BMP10 furin/PCSK cleavage site); details: 24-hour incubation, read-out: furin golgi cell pXC50 (converted);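 also: Read-out is mean GFP fluorescence of Golgi puncta per cell by high-content imaging, retained when furin inhibited, over an eleven-point 0.00017–10 µM series, four-parameter fit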
Sequence (P09958 108-794): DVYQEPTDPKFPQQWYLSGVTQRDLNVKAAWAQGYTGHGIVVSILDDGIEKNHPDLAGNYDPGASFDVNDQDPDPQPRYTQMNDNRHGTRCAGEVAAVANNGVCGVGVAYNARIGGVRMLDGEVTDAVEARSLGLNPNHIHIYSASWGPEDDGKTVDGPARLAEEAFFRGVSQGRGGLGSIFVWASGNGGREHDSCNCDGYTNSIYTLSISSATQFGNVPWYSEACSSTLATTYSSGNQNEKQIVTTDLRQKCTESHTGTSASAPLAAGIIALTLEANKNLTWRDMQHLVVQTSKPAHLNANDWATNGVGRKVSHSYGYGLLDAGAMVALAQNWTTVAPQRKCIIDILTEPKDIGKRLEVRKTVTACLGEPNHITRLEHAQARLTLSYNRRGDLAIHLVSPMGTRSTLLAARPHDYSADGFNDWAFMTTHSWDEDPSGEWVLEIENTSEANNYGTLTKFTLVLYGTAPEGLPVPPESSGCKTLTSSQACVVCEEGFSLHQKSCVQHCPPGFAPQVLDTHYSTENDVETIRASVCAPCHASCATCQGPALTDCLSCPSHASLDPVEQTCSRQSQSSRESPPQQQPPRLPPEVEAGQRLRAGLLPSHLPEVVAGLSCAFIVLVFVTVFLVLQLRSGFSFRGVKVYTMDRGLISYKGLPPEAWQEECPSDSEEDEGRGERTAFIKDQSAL
Listing of recorded EC50 by entry.
Please respond with the number in nM and leave the unit unwritten.

CNC(=O)NCC1CCN(Cc2cc(Oc3cnc(N4CCN(CC(C)C(=O)O)CC4)nc3)cc(-c3cc(Cl)cc(Cl)c3)c2)CC1 (centres unmarked) [Example 292] : 50.1
O=C(O)CC1CCN(Cc2cc(Oc3cnc(N4CCN(CCC5(O)CC5)CC4)nc3)nc(-c3cc(Cl)cc(Cl)c3)c2)CC1 [Example 278] : 10
NC1(CO)CCN(c2ncc(Oc3cc(CN4CCC(CC(=O)O)CC4)cc(-c4cc(Cl)cc(Cl)c4)n3)cn2)CC1 [Example 165] : 31.6
CNC(=O)OCC1CCN(Cc2cc(Oc3cnc(N4CCN(C(C)CCC(=O)O)CC4)nc3)nc(-c3cc(Cl)cc(Cl)c3)c2)CC1 (centres unmarked) [Example 208] : 10
CN1CCN(c2ccc(Oc3cc(CN4CC[C@@H]5[C@H](CC4)[C@H]5C(=O)O)cc(-c4cc(Cl)cc(Cl)c4)n3)cn2)CC1 [Example 136] : 15.8

stdin: Assign EC50 to the following record: CC(=O)NCC1CCN(Cc2cc(Oc3cnc(N4CCN(C5CC(C(=O)O)C5)CC4)nc3)nc(-c3cc(Cl)cc(Cl)c3)c2)CC1 (centres unmarked) [Example 216]
stdout: 15.8

stdin: Assign EC50 to the following record: CN1CC2CN(c3ncc(Oc4cc(CN5CCC(CC(=O)O)CC5)cc(-c5cc(Cl)cc(Cl)c5)n4)cn3)CC2C1 (centres unmarked) [Example 133]
stdout: 39.8

stdin: Assign EC50 to the following record: CNC(=O)OCC1CCN(Cc2cc(Oc3cnc(N4CCNCC4)nc3)nc(-c3cc(Cl)cc(Cl)c3)c2)CC1 [Example 73]
stdout: 6.31
